Test system: MDA-MB-231 breast
Test: NCI-60 one-dose screen, 48 h
Conditions: 10 µM unless noted
Compounds without any hit were thinned out: in the full panel of roughly 83,000, 20% have a hit. Active and inactive are the calls of the source. How the source made its calls: active means growth percent below 10; inactive means the rest.
Pick one: t = active, f = inactive

                                   molecule  category
0  COc1cc(C2CC(C3C(=O)N(C)C(=O)N(C)C3=O)=NN2c2cc(Cl)cc(Cl)c2)cc(OC)c1OC (stereo not drawn)         f
1  O=C1CSC(c2ccccc2O)N1c1nnc(Cn2ccnc2)o1 (stereo not drawn)         f
2     Cc1ccccc1NC(=O)N/C(N)=N/c1nc2ccccc2s1         f
3            CC(C)N(Cc1ccccc1)c1c(Cl)ssc1=O         f
4  CC(=O)N1N=C(c2ccc(Nc3ccnc4cc(Cl)ccc34)cc2)CC1c1ccc(Cl)cc1 (stereo not drawn)         f
5  COc1cc(NC(=O)NCc2ccco2)ccc1-c1ccc(NC(=O)NCc2ccco2)cc1OC         f
6  O=CN1N=C(c2ccc(Nc3ccnc4cc(Cl)ccc34)cc2)CC1c1ccc(Cl)cc1 (stereo not drawn)         f
7  COc1cc(/C=C/C(=O)C(C(=O)/C=C/c2ccc(OC(=O)CCNc3nnc(C)s3)c(OC)c2)C(=O)CCNc2nnc(C)s2)ccc1OC(=O)CCNc1nnc(C)s1         t
8  CCCCN=C(N)c1ccc(OCCSCCOc2ccc(C(N)=NCCCC)cc2)cc1         f
9  NS(=O)(=O)c1cc(C2(O)NC(=O)c3ccccc32)ccc1Cl (stereo not drawn)         f

Challenge: What was the test verdict on CC(NC(N)=S)c1ccccc1 (stereo not drawn) ?
Response given: f

Challenge: What was the test verdict on O=C(O)C1C(c2ccccc2)c2ccccc2C(O)C1CO (stereo not drawn) ?
Response given: f

Challenge: What was the test verdict on "CC(=O)Nc1cc2c3c(cccc3c1)-c1ccccc1-2" ?
Response given: f

###

Test system: SF-295 CNS
Assay: NCI-60 one-dose screen, 48 h (100 = growth as untreated, 0 = no growth, -100 = all killed)
Conditions: 10 µM unless noted
Compounds without any hit were thinned out: in the full panel of roughly 83,000, 20% have a hit. Active and inactive are the calls of the source. The calls were made as follows: active = growth percent below 10; inactive = the rest.
Readout kind: growth

Example results:
In [3]: df
Out[3]:
                        structure_as_smiles            result
0  O=C(Nc1nc2ccc(OC(F)(F)F)cc2s1)c1ccc(F)cc1       4% (active)
1  CCOC(=O)/C=C1/SC(=Nc2ccc(C#N)cc2)N(Cc2ccco2)C1=O  88.8% (inactive)
2  O=C1/C(=C\c2coc3ccccc3c2=O)c2ccccc2N1c1c(Cl)cccc1Cl     -12% (active)
3  Cc1cc(=O)oc2cc(OCCn3c(C)nn(-c4ccc(Cl)cc4)c3=O)ccc12    14% (inactive)

Challenge: Provide one value: measured growth of "COc1cc(/C=N/NC(=O)c2ccc(C(F)(F)F)nc2Nc2cc(Cl)ccc2C)cc(OC)c1OC"
Response given: 70.9% (inactive)

###

System: T-47D breast
Test: NCI-60 one-dose screen, 48 h
Details: 10 µM unless noted
The panel holds about 83,000 compounds, 20% with a hit somewhere; the sample as a whole holds those more often. The source made the active and inactive calls. How the source made its calls: active means growth percent below 10; inactive means the rest.
Pick one: active, inactive

Completed entries (count: 9):
>>> df
                                   compound  category
0                  Clc1ccc2nc(CI)c(CI)nc2c1  inactive
1  CC(=O)[C@H]1CC[C@H]2[C@@H]3C[C@H](C)C4=CC(=O)CC[C@]4(C)[C@H]3C(=O)C[C@]12C  inactive
2  O=CN1N=C(c2ccc(Nc3ccnc4cc(Cl)ccc34)cc2)CC1c1ccc(Cl)cc1 (stereo not given)  inactive
3         c1ccc2c(-c3nc4ccccc4[nH]3)cccc2c1  inactive
4  N/C(=N\C(N)=N\c1nc2ccccc2s1)c1ccnc(Cl)c1  inactive
5            Cc1cc(C)c2c(N)c3cccc(C)c3nc2n1    active
6  [N-]=[N+]=NCc1ncc(-c2ccc(C(F)(F)F)cc2)c(NC2CCCCCC2)n1  inactive
7  C[C@H]1c2cccc(O)c2C(O)=C2C(=O)[C@]3(O)C(O)=C(C(N)=O)C(=O)[C@@H](N(C)C)[C@@H]3[C@@H](O)[C@@H]21  inactive
8         COc1cccc(/C=N/Nc2nc3ccccc3s2)c1OC  inactive

Then there is this compound:
Challenge: What was the test verdict on "O=C(CN1CCN(c2ccc(Cl)cc2)CC1)N1CCN(c2nnc(-c3ccc(Cl)cc3)c(-c3ccc(Cl)cc3)n2)CC1" ?
Response given: inactive

Where do these numbers come from? They come from PubChem BioAssay (NCI).
